This section presents compounds with their documented pIC50 values.
molecular target: cIAP1-BIR3 (Homo sapiens (Human), UniProt Q13490); test: BIR binding assay (FRET competition), cIAP1 BIR3
Sequence (Q13490 253-363): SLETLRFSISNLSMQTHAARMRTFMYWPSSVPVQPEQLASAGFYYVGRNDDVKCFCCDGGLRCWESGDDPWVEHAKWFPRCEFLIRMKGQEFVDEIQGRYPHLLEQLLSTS
pIC50: −log10 of the molar value.
Property Measured: pIC50

| Molecule Smiles | Result |
| --- | --- |
| C[C@@H]1CN(CC(=O)N2CC(C)(C)c3[nH]c(=O)c(Cc4ccc(F)cc4)cc32)[C@@H](CN2CCC(CCCC3CCN(C[C@H]4CN[C@H](C)CN4CC(=O)N4CC(C)(C)c5[nH]c(=O)c(Cc6ccc(F)cc6)cc54)CC3)CC2)CN1 | 7.80 to 8.10 |
| C[C@@H]1CN(CC(=O)N2CC(C)(C)c3[nH]c(=O)c(Cc4ccc(Cl)cc4C#N)cc32)[C@@H](CN2CCO[C@H](COc3cccc(OC[C@@H]4CN(C[C@H]5CN[C@H](C)CN5CC(=O)N5CC(C)(C)c6[nH]c(=O)c(Cc7ccc(Cl)cc7C#N)cc65)CCO4)c3)C2)CN1 | 7.50 to 7.80 |
| C[C@@H]1CN(CC(=O)N2CC(C)(C)c3[nH]c(=O)c(Cc4ccc(F)cc4)cc32)[C@@H](CN2CCN(C(=O)COc3ccc(OCC(=O)N4CCN(C[C@H]5CN[C@H](C)CN5CC(=O)N5CC(C)(C)c6[nH]c(=O)c(Cc7ccc(F)cc7)cc65)[C@H](C)C4)cc3)C[C@H]2C)CN1 | 7.50 to 7.80 |
| C[C@@H]1CN(CC(=O)N2CC(C)(C)c3[nH]c(=O)c(Cc4ccc(F)cc4)cc32)[C@@H](CN2CCO[C@@H](C(=O)NCc3ccc(CNC(=O)[C@H]4CN(C[C@H]5CN[C@H](C)CN5CC(=O)N5CC(C)(C)c6[nH]c(=O)c(Cc7ccc(F)cc7)cc65)CCO4)cc3)C2)CN1 | 7.80 to 8.10 |

---

molecular target: XIAP-BIR3 (Homo sapiens (Human), UniProt P98170); assay: BIR binding assay (FRET competition), XIAP BIR3; settings: fold separation (FS) for XIAP
Sequence (P98170 241-356): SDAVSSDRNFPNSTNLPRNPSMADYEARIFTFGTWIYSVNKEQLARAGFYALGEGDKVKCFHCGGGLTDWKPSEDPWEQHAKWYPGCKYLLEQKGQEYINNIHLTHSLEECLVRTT
Property Measured: XIAP BIR3 vs BIR2 separation window

| Molecule | Result |
| --- | --- |
| C[C@@H]1CN(CC(=O)N2CC(C)(C)c3[nH]c(=O)c(Cc4ccc(F)cc4)cc32)[C@@H](CN2CCO[C@H](C(=O)NCC3CCN(C(=O)[C@@H]4CN(C[C@H]5CN[C@H](C)CN5CC(=O)N5CC(C)(C)c6[nH]c(=O)c(Cc7ccc(F)cc7)cc65)CCO4)CC3)C2)CN1 [Compound 133] | ++++ (FS>10,000) |
| C[C@@H]1CN(CC(=O)N2CC(C)(C)c3ncc(N(C)c4ccc(F)cc4)cc32)[C@@H](CN2CCO[C@H](COc3cccc(OC[C@@H]4CN(C[C@H]5CN[C@H](C)CN5CC(=O)N5CC(C)(C)c6ncc(N(C)c7ccc(F)cc7)cc65)CCO4)c3)C2)CN1 [Compound 144] | +++ (10,000>FS>1,000) |
| C[C@@H]1CN(CC(=O)N2CC(C)(C)c3[nH]c(=O)c(Cc4ccc(F)cc4)cc32)[C@@H](CN2CCC[C@@H](NC(=O)Cc3ccc(CC(=O)N[C@@H]4CCCN(C[C@H]5CN[C@H](C)CN5CC(=O)N5CC(C)(C)c6[nH]c(=O)c(Cc7ccc(F)cc7)cc65)C4)cc3)C2)CN1 [Example 48] | ++++ (FS>10,000) |
| C[C@@H]1CN(CC(=O)N2CC(C)(C)c3ncc(Cc4cccnc4)cc32)[C@@H](CN2CCO[C@H](COc3cccc(OC[C@@H]4CN(C[C@H]5CN[C@H](C)CN5CC(=O)N5CC(C)(C)c6ncc(Cc7cccnc7)cc65)CCO4)c3)C2)CN1 [Compound 146] | ++++ (FS>10,000) |
| C[C@@H]1CN(CC(=O)N2CC(C)(C)c3[nH]c(=O)c(Cc4ccc(F)cc4)cc32)[C@@H](CN2CCO[C@@H](C(=O)NCc3ccc(CNC(=O)[C@H]4CN(C[C@H]5CN[C@H](C)CN5CC(=O)N5CC(C)(C)c6[nH]c(=O)c(Cc7ccc(F)cc7)cc65)CCO4)cc3)C2)CN1 [Example 111] | +++ (10,000>FS>1,000) |
| C[C@@H]1CN(CC(=O)N2CC(C)(C)c3[nH]c(=O)c(Cc4ccc(F)cc4)cc32)[C@@H](CN2CCO[C@H](C(=O)NCCOCCNC(=O)[C@@H]3CN(C[C@H]4CN[C@H](C)CN4CC(=O)N4CC(C)(C)c5[nH]c(=O)c(Cc6ccc(F)cc6)cc54)CCO3)C2)CN1 [Compound 138] | ++++ (FS>10,000) |
| C[C@@H]1CN(CC(=O)N2CC(C)(C)c3[nH]c(=O)c(Cc4ccc(F)cc4)cc32)[C@@H](CN2CCO[C@H](COc3ccc(C#N)c(OC[C@@H]4CN(C[C@H]5CN[C@H](C)CN5CC(=O)N5CC(C)(C)c6[nH]c(=O)c(Cc7ccc(F)cc7)cc65)CCO4)c3)C2)CN1 [Example 77] | ++++ (FS>10,000) |

---

This section presents molecules with their documented IC50 values.
molecular target: cIAP2-BIR2 (Homo sapiens (Human)); assay: BIR binding assay (FRET competition), cIAP2 BIR2
Sequence (Q13489 158-242): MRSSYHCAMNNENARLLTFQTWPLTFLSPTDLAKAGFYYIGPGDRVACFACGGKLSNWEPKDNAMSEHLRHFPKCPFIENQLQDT

| Molecule Smiles | IC50 |
| --- | --- |
| C[C@@H]1CN(CC(=O)N2CC(C)(C)c3[nH]c(=O)c(Cc4ccc(F)cc4)cc32)[C@@H](CN2CCC(CCOc3cccc(OCCC4CCN(C[C@H]5CN[C@H](C)CN5CC(=O)N5CC(C)(C)c6[nH]c(=O)c(Cc7ccc(F)cc7)cc65)CC4)c3)CC2)CN1 | 10000 to 51300 nM |
| C[C@@H]1CN(CC(=O)N2CC(C)(C)c3[nH]c(=O)c(Cc4ccc(F)cc4)cc32)[C@@H](CN2CCN(C(=O)/C=C/c3ccc(/C=C/C(=O)N4CCN(C[C@H]5CN[C@H](C)CN5CC(=O)N5CC(C)(C)c6[nH]c(=O)c(Cc7ccc(F)cc7)cc65)[C@H](C)C4)cc3)C[C@H]2C)CN1 | 22.4 to 1000 nM |
| C[C@@H]1CN(CC(=O)N2CC(C)(C)c3[nH]c(=O)c(Cc4ccc(F)cc4)cc32)[C@@H](CN2CCO[C@H](C(=O)NCCCCNC(=O)[C@@H]3CN(C[C@H]4CN[C@H](C)CN4CC(=O)N4CC(C)(C)c5[nH]c(=O)c(Cc6ccc(F)cc6)cc54)CCO3)C2)CN1 | 1000 to 3160 nM |
| C[C@@H]1CN(CC(=O)N2CC(C)(C)c3[nH]c(=O)c(Cc4ccccc4)cc32)[C@@H](CN2CCO[C@H](C(=O)NCc3ccc(CNC(=O)[C@@H]4CN(C[C@H]5CN[C@H](C)CN5CC(=O)N5CC(C)(C)c6[nH]c(=O)c(Cc7ccccc7)cc65)CCO4)cc3)C2)CN1 | 1000 to 3160 nM |

---

target: cIAP2-BIR3 (Homo sapiens (Human), UniProt Q13489); assay: BIR binding assay (FRET competition), cIAP2 BIR3
Sequence (Q13489 238-349): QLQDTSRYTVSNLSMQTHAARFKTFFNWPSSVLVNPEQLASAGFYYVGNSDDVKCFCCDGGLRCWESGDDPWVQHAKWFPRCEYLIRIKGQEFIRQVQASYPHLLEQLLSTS

| Molecule | IC50 |
| --- | --- |
| C[C@@H]1CN(CC(=O)N2CC(C)(C)c3[nH]c(=O)c(Cc4ccc(F)cc4)cc32)[C@@H](CN2CCN(C(=O)c3ccc(C(=O)N4CCN(C[C@H]5CN[C@H](C)CN5CC(=O)N5CC(C)(C)c6[nH]c(=O)c(Cc7ccc(F)cc7)cc65)[C@H](C)C4)cc3)C[C@H]2C)CN1 [Example 19] | 1.38 to 7.94 nM |
| C[C@@H]1CN(CC(=O)N2CC(C)(C)c3[nH]c(=O)c(Cc4ccc(F)cc4)cc32)[C@@H](CN2CCN(C(=O)COCCOCC(=O)N3CCN(C[C@H]4CN[C@H](C)CN4CC(=O)N4CC(C)(C)c5[nH]c(=O)c(Cc6ccc(F)cc6)cc54)[C@H](C)C3)C[C@H]2C)CN1 [Example 5] | 15.8 to 31.6 nM |

---

molecular target: cIAP1-BIR3 (Homo sapiens (Human), UniProt Q13490); test: BIR binding assay (FRET competition), cIAP1 BIR3

| Compound | IC50 |
| --- | --- |
| C[C@@H]1CN(CC(=O)N2CC(C)(C)c3[nH]c(=O)c(Cc4ccc(F)cc4)cc32)[C@@H](CN2CCO[C@H](COc3ccc(C(C)(C)c4ccc(OC[C@@H]5CN(C[C@H]6CN[C@H](C)CN6CC(=O)N6CC(C)(C)c7[nH]c(=O)c(Cc8ccc(F)cc8)cc76)CCO5)cc4)cc3)C2)CN1 | 31.6 to 501 nM |
| C[C@@H]1CN(CC(=O)N2CC(C)(C)c3[nH]c(=O)c(Cc4ccc(F)cc4)cc32)[C@@H](CN2CCO[C@H](C(=O)NCCCN(C)C(=O)[C@@H]3CN(C[C@H]4CN[C@H](C)CN4CC(=O)N4CC(C)(C)c5[nH]c(=O)c(Cc6ccc(F)cc6)cc54)CCO3)C2)CN1 | 15.8 to 31.6 nM |
| C[C@@H]1CN(CC(=O)N2CC(C)(C)c3[nH]c(=O)c(Oc4ccccc4)cc32)[C@@H](CN2CCO[C@H](C(=O)NCc3ccc(CNC(=O)[C@@H]4CN(C[C@H]5CN[C@H](C)CN5CC(=O)N5CC(C)(C)c6[nH]c(=O)c(Oc7ccccc7)cc65)CCO4)cc3)C2)CN1 | 15.8 to 31.6 nM |
| Cc1cc(OC[C@@H]2CN(C[C@H]3CN[C@H](C)CN3CC(=O)N3CC(C)(C)c4[nH]c(=O)c(Cc5ccc(F)cc5)cc43)CCO2)cc(OC[C@@H]2CN(C[C@H]3CN[C@H](C)CN3CC(=O)N3CC(C)(C)c4[nH]c(=O)c(Cc5ccc(F)cc5)cc43)CCO2)c1 | 7.94 to 15.8 nM |
| C[C@@H]1CN(CC(=O)N2CC(C)(C)c3[nH]c(=O)c(Cc4ccc(F)cc4)cc32)[C@@H](CN2CCO[C@H](COc3ccc(C(C)(C)c4cccc(C(C)(C)c5ccc(OC[C@@H]6CN(C[C@H]7CN[C@H](C)CN7CC(=O)N7CC(C)(C)c8[nH]c(=O)c(Cc9ccc(F)cc9)cc87)CCO6)cc5)c4)cc3)C2)CN1 (stereo in doubt) | 31.6 to 501 nM |
| C[C@@H]1CN(CC(=O)N2CC(C)(C)c3[nH]c(=O)c(Cc4ccc(F)cc4)cc32)[C@@H](CN2CCO[C@H](COCCCCCCOC[C@@H]3CN(C[C@H]4CN[C@H](C)CN4CC(=O)N4CC(C)(C)c5[nH]c(=O)c(Cc6ccc(F)cc6)cc54)CCO3)C2)CN1 | 7.94 to 15.8 nM |
| C[C@@H]1CN(CC(=O)N2CC(C)(C)c3c2cc(Cc2ccc(F)cc2)c(=O)n3C)[C@@H](CN2CCO[C@H](COc3ccc(Cc4ccc(OC[C@@H]5CN(C[C@H]6CN[C@H](C)CN6CC(=O)N6CC(C)(C)c7c6cc(Cc6ccc(F)cc6)c(=O)n7C)CCO5)cc4)cc3)C2)CN1 | 31.6 to 501 nM |
| C[C@@H]1CN(CC(=O)N2CC(C)(C)c3[nH]c(=O)c(Cc4ccc(F)cc4)cc32)[C@@H](CN2CCC(CC(=O)N(C)Cc3ccc(CN(C)C(=O)CC4CCN(C[C@H]5CN[C@H](C)CN5CC(=O)N5CC(C)(C)c6[nH]c(=O)c(Cc7ccc(F)cc7)cc65)CC4)cc3)CC2)CN1 | 1.38 to 7.94 nM |
| C[C@@H]1CN(CC(=O)N2CC(C)(C)c3[nH]c(=O)c(Cc4ccc(F)cc4)cc32)[C@@H](CN2CCO[C@H](COc3ccc(C#N)c(OC[C@@H]4CN(C[C@H]5CN[C@H](C)CN5CC(=O)N5CC(C)(C)c6[nH]c(=O)c(Cc7ccc(F)cc7)cc65)CCO4)c3)C2)CN1 | 1.38 to 7.94 nM |
| C[C@@H]1CN(CC(=O)N2CC(C)(C)c3[nH]c(=O)c(Cc4ccc(F)cc4)cc32)[C@@H](CN2CCC(CCN(C)C(=O)c3ccc(C(=O)N(C)CCC4CCN(C[C@H]5CN[C@H](C)CN5CC(=O)N5CC(C)(C)c6[nH]c(=O)c(Cc7ccc(F)cc7)cc65)CC4)cc3)CC2)CN1 | 1.38 to 7.94 nM |
| Cc1c(OC[C@@H]2CN(C[C@H]3CN[C@H](C)CN3CC(=O)N3CC(C)(C)c4[nH]c(=O)c(Cc5ccc(F)cc5)cc43)CCO2)cccc1OC[C@@H]1CN(C[C@H]2CN[C@H](C)CN2CC(=O)N2CC(C)(C)c3[nH]c(=O)c(Cc4ccc(F)cc4)cc32)CCO1 | 1.38 to 7.94 nM |
| C[C@@H]1CN(CC(=O)N2CC(C)(C)c3[nH]c(=O)c(Cc4ccc(F)cc4)cc32)[C@@H](CN2CCN(C(=O)c3ccnc(-c4cc(C(=O)N5CCN(C[C@H]6CN[C@H](C)CN6CC(=O)N6CC(C)(C)c7[nH]c(=O)c(Cc8ccc(F)cc8)cc76)[C@H](C)C5)ccn4)c3)C[C@H]2C)CN1 | 1.38 to 7.94 nM |
| C[C@@H]1CN(CC(=O)N2CC(C)(C)c3[nH]c(=O)c(Cc4ccc(F)cc4)cc32)[C@@H](CN2CCC(CCNC(=O)c3ccc(C(=O)NCCC4CCN(C[C@H]5CN[C@H](C)CN5CC(=O)N5CC(C)(C)c6[nH]c(=O)c(Cc7ccc(F)cc7)cc65)CC4)cc3)CC2)CN1 | 7.94 to 15.8 nM |
| C[C@@H]1CN(CC(=O)N2CC(C)(C)c3[nH]c(=O)c(Cc4ccc(F)cc4)cc32)[C@@H](CN2CCN(C(=O)/C=C/c3ccc(/C=C/C(=O)N4CCN(C[C@H]5CN[C@H](C)CN5CC(=O)N5CC(C)(C)c6[nH]c(=O)c(Cc7ccc(F)cc7)cc65)[C@H](C)C4)cc3)C[C@H]2C)CN1 | 15.8 to 31.6 nM |

The reported numbers originate from patent US20250326771A1.
